Molecular target: human recombinant serotonin (5-Hydroxytryptamine) 5-HT2C receptor (Homo sapiens, UniProt P28335)
Construct: expressed in transfected cells; host or cells: CHO-K1 cells
Sequence (P28335 33-458): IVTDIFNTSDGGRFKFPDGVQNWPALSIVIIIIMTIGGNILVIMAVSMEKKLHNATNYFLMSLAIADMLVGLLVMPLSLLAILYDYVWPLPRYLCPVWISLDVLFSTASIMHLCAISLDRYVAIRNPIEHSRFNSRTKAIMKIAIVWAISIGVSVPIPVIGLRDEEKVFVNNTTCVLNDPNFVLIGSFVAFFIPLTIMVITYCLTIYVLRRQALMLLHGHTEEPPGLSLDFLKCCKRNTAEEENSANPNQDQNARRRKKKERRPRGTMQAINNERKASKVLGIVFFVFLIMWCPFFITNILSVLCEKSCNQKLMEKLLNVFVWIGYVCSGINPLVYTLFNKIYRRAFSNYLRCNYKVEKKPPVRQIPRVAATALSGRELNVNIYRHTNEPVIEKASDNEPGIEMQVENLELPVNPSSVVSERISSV
Assay: Serotonin 5-HT2C radioligand binding ([3H]Mesulergine)
Details: compound at 1 μM; CHO-K1 cells; read-out: Serotonin (1 μM) 5-HT2C, percent inhibition of specific binding
Quick rule: inhibition at 1 µM of at least 30% means label 1, below that means label 0.

Exam item: hey, is inhibition at 1 µM for this one >= 30%? Cc1ccc2c(c1)c1c(n2CCC(=O)O)CCN(C)C1
Marked response: label 0

Exam item: Try CN1CCc2c(c3cc(Cl)ccc3n2CCC(N)=O)C1 next.
Marked response: label 1

Exam item: Record: Cc1ccc2c(c1)c1c(n2CC(=O)NC(C)(C)C)CCN(C)C1
Marked response: label 0

Exam item: Can you handle CN1CCc2c(c3cc(Cl)ccc3n2CCC(=O)O)C1 next?
Marked response: label 0

Exam item: Quick one: Cc1ccc2c(c1)c1c(n2CCNC(=O)c2ccc(F)cc2)CCN(C)C1
Marked response: label 1

Exam item: How about Cc1ccc2c(c1)c1c(n2CCN)CCN(C)C1 ?
Marked response: label 0

* * *

target: human recombinant adrenergic α2B receptor (Homo sapiens, UniProt P18089); construct: expressed in transfected cells; host or cells: CHO-K1 cells; test: Adrenergic α2B radioligand binding ([3H]Rauwolscine); conditions: compound at 1 μM; CHO-K1 cells; read-out: Adrenergic (1 μM) α2B, percent inhibition of specific binding
Sequence (P18089 whole entry): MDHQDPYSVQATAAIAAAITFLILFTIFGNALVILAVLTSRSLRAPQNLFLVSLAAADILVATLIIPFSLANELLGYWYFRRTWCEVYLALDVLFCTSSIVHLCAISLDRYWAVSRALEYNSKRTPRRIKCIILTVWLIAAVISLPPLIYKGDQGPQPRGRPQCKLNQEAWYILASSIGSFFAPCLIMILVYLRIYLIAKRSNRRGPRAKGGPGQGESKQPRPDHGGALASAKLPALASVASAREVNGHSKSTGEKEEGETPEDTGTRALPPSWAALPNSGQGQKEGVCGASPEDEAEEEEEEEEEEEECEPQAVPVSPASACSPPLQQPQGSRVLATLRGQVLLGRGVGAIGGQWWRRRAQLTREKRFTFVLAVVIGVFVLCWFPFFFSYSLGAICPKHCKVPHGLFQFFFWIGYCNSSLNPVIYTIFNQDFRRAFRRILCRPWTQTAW
The label depends only on inhibition at 1 µM: yes (1) if it is at least 90%, no (0) if it is smaller.

Exam item: Decide: inhibition at 1 µM of CN1CCc2c(c3cc(Cl)ccc3n2CC(=O)OCC2CCCCC2)C1 >= 90%?
Marked response: yes (1)

Exam item: Quick one: Cc1ccc2c(c1)c1c(n2CC(=O)NC(C)(C)C)CCN(C)C1
Marked response: no (0)

Exam item: Queued: CN1CCc2c(c3cc(Cl)ccc3n2CCC#N)C1
Marked response: no (0)

Exam item: Please answer likewise for Cc1ccc2c(c1)c1c(n2CC(=O)Nc2ccc(F)cc2)CCN(C)C1
Marked response: no (0)

Exam item: Also need Cc1ccc2c(c1)c1c(n2C2CCCCC2O)CCN(C)C1 (stereo not shown) , thanks.
Marked response: no (0)

Exam item: Next entry: Cc1ccc2c(c1)c1c(n2CCNC(=O)C2CCCNC2)CCN(C)C1 (stereo not shown)
Marked response: no (0)

Exam item: And then CC(C)OC(=O)CCn1c2c(c3cc(Cl)ccc31)CN(C)CC2 , what is it?
Marked response: yes (1)

Exam item: Entry CN1CCc2c(c3cc(Cl)ccc3n2CCO)C1 please
Marked response: yes (1)

Exam item: // repeat for CNC(=O)CCn1c2c(c3cc(C)ccc31)CN(C)CC2 and report
Marked response: no (0)

Exam item: Field entry: Cc1ccc2c(c1)c1c(n2CCC#N)CCN(C)C1
Marked response: yes (1)

Exam item: Now give it for Cc1ccc2c(c1)c1c(n2CCC(=O)O)CCN(C)C1 too.
Marked response: no (0)

Exam item: Next record, please: CCOC(=O)Cn1c2c(c3cc(Cl)ccc31)CN(C)CC2
Marked response: no (0)

Exam item: For Cc1ccc2c(c1)c1c(n2CC(=O)O)CCN(C)C1 then?
Marked response: no (0)

Exam item: One more molecule: Cc1ccc2c(c1)c1c(n2CCNC(=O)C2CCCC2)CCN(C)C1
Marked response: no (0)

Exam item: And then CN1CCc2c(c3cc(Cl)ccc3n2CC(=O)N(C)C)C1 , what is it?
Marked response: no (0)

Exam item: What would you report for Cc1ccc2c(c1)c1c(n2CCC(N)=O)CCN(C)C1 ?
Marked response: no (0)

Exam item: How about this molecule: Cc1ccc2c(c1)c1c(n2CCC(=O)NC2CCCCC2)CCN(C)C1
Marked response: no (0)

Exam item: Could you do the same for Cc1ccc2c(c1)c1c(n2CC(=O)NCC2CCCCC2)CCN(C)C1 , please?
Marked response: no (0)

Exam item: Note, next up: CN1CCc2c(c3cc(Cl)ccc3n2CCC(=O)O)C1
Marked response: no (0)

Exam item: Ok, now CN1CCc2c(c3cc(Cl)ccc3n2CCC(=O)OCc2ccccc2)C1
Marked response: yes (1)

Exam item: Same question for Cc1ccc2c(c1)c1c(n2CCNC(=O)c2ccc(F)cc2Cl)CCN(C)C1 please.
Marked response: yes (1)

Exam item: Then CN1CCc2c(c3cc(Cl)ccc3n2CC(=O)OCc2ccccc2)C1 ?
Marked response: yes (1)

Exam item: Can you check CN1CCc2c(c3cc(Cl)ccc3n2CCC(=O)OCC2CCCCC2)C1 next?
Marked response: yes (1)

Exam item: Request: CCOC(=O)Cn1c2c(c3cc(C)ccc31)CN(C)CC2
Marked response: no (0)

Exam item: Also Cc1ccc2c(c1)c1c(n2CCC(=O)NCc2ccccc2)CCN(C)C1 ?
Marked response: yes (1)

Exam item: Cc1ccc2c(c1)c1c(n2CCC(=O)Nc2ccccc2)CCN(C)C1 ?
Marked response: no (0)

Exam item: Can you handle Cc1ccc2c(c1)c1c(n2CCN)CCN(C)C1 next?
Marked response: no (0)

Exam item: Also, CCOC(=O)CCn1c2c(c3cc(C)ccc31)CN(C)CC2 please.
Marked response: yes (1)

Exam item: Ok, now CN1CCc2c(c3cc(Cl)ccc3n2CC(=O)NC2CCCCC2)C1
Marked response: no (0)

Exam item: Also Cc1ccc2c(c1)c1c(n2CCNC(=O)c2ccncc2C)CCN(C)C1 , if possible.
Marked response: no (0)

Exam item: Another: Cc1ccc2c(c1)c1c(n2CCC(=O)NC2CCCC2)CCN(C)C1
Marked response: yes (1)

Exam item: Try this molecule next: Cc1ccc2c(c1)c1c(n2CCO)CCN(C)C1
Marked response: no (0)

Exam item: One more molecule: CCNC(=O)CCCn1c2c(c3cc(C)ccc31)CN(C)CC2
Marked response: no (0)

Exam item: Consider next the molecule CCOC(=O)CCn1c2c(c3cc(Cl)ccc31)CN(C)CC2 in the same way.
Marked response: yes (1)

Exam item: Likewise for CN1CCc2c(c3cc(Cl)ccc3n2CCC(=O)OC2CCCC2)C1 ?
Marked response: yes (1)

Exam item: Can you check CN1CCc2c(c3cc(Cl)ccc3n2CC(=O)OC(C)(C)C)C1 next?
Marked response: no (0)

* * *

molecular target: human recombinant serotonin (5-Hydroxytryptamine) 5-HT5A receptor (Homo sapiens, UniProt P47898); construct: expressed in transfected cells; host or cells: CHO-K1 cells; assay: Serotonin 5-HT5A radioligand binding ([3H]LSD); conditions: compound at 1 μM; CHO-K1 cells; read-out: Serotonin (1 μM) 5-HT5A, percent inhibition of specific binding
Sequence (P47898 whole entry): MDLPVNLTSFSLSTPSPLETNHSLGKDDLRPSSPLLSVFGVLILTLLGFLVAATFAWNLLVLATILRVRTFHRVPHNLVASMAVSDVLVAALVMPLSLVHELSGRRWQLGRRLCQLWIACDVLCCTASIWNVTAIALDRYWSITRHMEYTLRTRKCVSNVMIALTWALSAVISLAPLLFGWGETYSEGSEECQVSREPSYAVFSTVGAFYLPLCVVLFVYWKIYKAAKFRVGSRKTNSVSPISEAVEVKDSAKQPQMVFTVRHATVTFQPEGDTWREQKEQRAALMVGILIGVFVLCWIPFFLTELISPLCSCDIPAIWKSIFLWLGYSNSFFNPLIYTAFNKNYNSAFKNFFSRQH
Record Y whenever inhibition at 1 µM is at 50% or higher; record N when lower.

Exam item: API: above_or_equal(metric=inhibition at 1 µM, cutoff=50%) for item Cc1ccc2c(c1)c1c(n2CCC(=O)NC2CCCCC2)CCN(C)C1
Marked response: N

Exam item: Now this one: CCNC(=O)CCCn1c2c(c3cc(C)ccc31)CN(C)CC2
Marked response: N

Exam item: For C#CCn1c2c(c3cc(C)ccc31)CN(C)CC2 then?
Marked response: Y

Exam item: Follow-up entry: Cc1ccc2c(c1)c1c(n2CCC(=O)NC2CCCC2)CCN(C)C1
Marked response: N

Exam item: Item: Cc1ccc2c(c1)c1c(n2CC#N)CCN(C)C1
Marked response: Y

Exam item: Now consider CNC(=O)CCn1c2c(c3cc(C)ccc31)CN(C)CC2 and answer again.
Marked response: N

Exam item: Follow-up entry: Cc1ccc2c(c1)c1c(n2CCNC(=O)C2CCCNC2)CCN(C)C1 (centres unmarked)
Marked response: N

Exam item: Now this one: Cc1ccc2c(c1)c1c(n2CCNC(=O)OCC(Cl)(Cl)Cl)CCN(C)C1
Marked response: Y

Exam item: Continue with CCNC(=O)CCn1c2c(c3cc(C)ccc31)CN(C)CC2
Marked response: N

Exam item: Could you do the same for CCOC(=O)CCCn1c2c(c3cc(C)ccc31)CN(C)CC2 , please?
Marked response: Y

Exam item: Now try CCOC(=O)CCn1c2c(c3cc(C)ccc31)CN(C)CC2 .
Marked response: N

Measured values drawn from patent US9115137B2 for this set.
